pIC50 listing for selected compounds.
target system: activated MMP-8 enzyme (Homo sapiens, UniProt P22894)
Sequence (P22894 101-467): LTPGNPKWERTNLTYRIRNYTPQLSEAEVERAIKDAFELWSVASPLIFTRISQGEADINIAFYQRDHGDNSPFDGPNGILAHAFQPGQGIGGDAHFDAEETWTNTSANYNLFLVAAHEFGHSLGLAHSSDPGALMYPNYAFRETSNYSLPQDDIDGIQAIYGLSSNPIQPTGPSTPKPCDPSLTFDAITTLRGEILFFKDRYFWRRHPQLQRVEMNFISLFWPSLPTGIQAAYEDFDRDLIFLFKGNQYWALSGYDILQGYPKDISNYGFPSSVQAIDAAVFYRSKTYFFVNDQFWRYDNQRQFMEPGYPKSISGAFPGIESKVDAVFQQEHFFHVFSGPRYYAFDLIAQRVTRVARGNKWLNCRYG
assay info: Assay for determining MMP-8 inhibition (fluorescent substrate)
measurement parameters: read-out: MMP-8 Activity (IC50 MMP-8), Group
pIC50: −log10 of the molar value.

Solved entries (count: 3):
{"compound": "Cc1sc2nc(C(=O)NCc3ccc4c(c3)NC(=S)CO4)[nH]c(=O)c2c1C [1/17]", "observed": "> 6.60"}
{"compound": "O=C(NCc1ccc2c(c1)NC(=S)CO2)c1nc2ccccc2c(=O)[nH]1 [1/16]", "observed": "4.70 to 6.60"}
{"compound": "O=C1COc2ccc(CNC(=O)c3nc4ccccc4c(=O)[nH]3)cc2N1 [1/4]", "observed": "> 6.60"}

Prompt: Consider the compound Cn1c(=O)oc2ccc(CNC(=O)c3nc4ccccc4c(=O)[nH]3)cc21 [1/7] and give its measured pIC50.
Completion: 4.70 to 6.60

Prompt: Do the same for Cc1sc2nc(C(=O)NCc3cc(F)c4c(c3)NC(=O)CO4)[nH]c(=O)c2c1C [1/12] please
Completion: > 6.60

Prompt: Do the same for O=C1COc2ccc(CNC(=O)c3nc4sc5c(c4c(=O)[nH]3)CCC3(C5)OCCO3)cc2N1 [1/32] please
Completion: > 6.60

----------
IC50 listing for selected compounds.
target system: activated MMP-8 enzyme (Homo sapiens)
Construct: purchased Calbiochem 444229
assay info: Assay for determining MMP-8 inhibition (fluorescent substrate)
Format: biochemical
measurement parameters: read-out: MMP-8 Activity (IC50 MMP-8), Group

{"compound": "Cc1sc2nc(C(=O)NCc3cnc4c(c3)NC(=O)CO4)[nH]c(=O)c2c1C [1/15]", "IC50": "250 to 20000 nM"}
{"compound": "CC1Oc2ccc(CNC(=O)c3nc4ccccc4c(=O)[nH]3)cc2NC1=O (stereo not drawn) [1/6]", "IC50": "250 to 20000 nM"}

# next compound below
Prompt: Consider the compound Cc1csc2nc(C(=O)NCc3ccc4c(c3)NC(=O)CO4)[nH]c(=O)c12 [1/9] and give its measured IC50.
Completion: < 250 nM

----------
target system: catalytic domain of MMP-13 enzyme (Homo sapiens, UniProt P45452)
IC50 listing for selected compounds.

Prompt: Consider the compound Cc1csc2nc(C(=O)NCc3ccc4c(c3)NC(=O)CO4)[nH]c(=O)c12 [1/9] and give its measured IC50.
Completion: < 100 nM

----------
target system: catalytic domain of MMP-3 enzyme (Homo sapiens, UniProt P08254)
Sequence (P08254 100-272 limits assumed): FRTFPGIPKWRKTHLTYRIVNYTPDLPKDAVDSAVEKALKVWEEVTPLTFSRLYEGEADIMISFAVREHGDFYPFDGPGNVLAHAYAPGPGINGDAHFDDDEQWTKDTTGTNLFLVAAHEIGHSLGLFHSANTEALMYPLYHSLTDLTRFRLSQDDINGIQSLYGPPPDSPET
experimental readout: IC50

Prompt: Reported IC50 for catalytic domain of MMP-3 enzyme (Homo sapiens, UniProt P08254), given `O=C1COc2ccc(CNC(=O)c3nc4sc5c(c4c(=O)[nH]3)CCC3(C5)OCCO3)cc2N1` ?
Completion: < 250 nM

----------
List of pIC50 tested on catalytic domain of MMP-13 enzyme (Homo sapiens).
pIC50: −log10 of the molar value.

Solved entries (count: 2):
{"compound": "Cc1sc2nc(C(=O)NCc3cc4c(cc3F)OCC(=O)N4)[nH]c(=O)c2c1C [1/26]", "observed": "> 7.00"}
{"compound": "Cc1sc2nc(C(=O)NCc3ccc4c(c3)-n3cnnc3CO4)[nH]c(=O)c2c1C [1/19]", "observed": "> 7.00"}

Prompt: Consider the compound Cc1sc2nc(C(=O)NCc3ccc4c(c3F)NC(=O)CO4)[nH]c(=O)c2c1C [1/24] and give its measured pIC50.
Completion: 4.70 to 7.00

Prompt: Do the same for O=C(NCc1ccc2c(c1)-n1c(noc1=O)CO2)c1nc2ccccc2c(=O)[nH]1 [1/30] please
Completion: 4.70 to 7.00

Prompt: Do the same for O=C1COc2cc(F)c(CNC(=O)c3nc4ccccc4c(=O)[nH]3)cc2N1 [1/25] please
Completion: > 7.00

Data credit: patent US20080221095A1
